Where do the numbers come from? From paper PMC8162404.

Target: Gal-1 (Homo sapiens, UniProt P09382)
Construct: made in house; host or cells: E. coli BL21(DE3)
Sequence (P09382 whole entry): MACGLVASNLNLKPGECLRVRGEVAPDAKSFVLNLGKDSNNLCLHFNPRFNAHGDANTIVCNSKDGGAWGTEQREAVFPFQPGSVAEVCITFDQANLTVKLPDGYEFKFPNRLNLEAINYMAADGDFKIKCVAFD
Assay: Pull-down assay with immobilized protein and LSM libraries
Format: binding
Conditions: H12 library; 1:1 binding assumed; read-out: Surface mapping KD (apparent)
pKd: −log10 of the molar value.

substance smiles	pKd
CC(C)C[C@@H](CC(=O)N[C@H]1CCC[C@@H]1C(=O)N[C@H]1CCC[C@@H]1C(=O)N[C@H](CC(=O)N[C@H]1CCC[C@@H]1C(=O)N[C@H]1CCC[C@@H]1C(N)=O)Cc1ccc(O)cc1)NC(=O)[C@H]1CCC[C@@H]1NC(=O)[C@H]1CCC[C@@H]1N	3.46
C[C@@H](CC(=O)N[C@H]1CCC[C@@H]1C(=O)N[C@H]1CCC[C@@H]1C(=O)N[C@@H](CC(N)=O)CC(=O)N[C@H]1CCC[C@@H]1C(=O)N[C@H]1CCC[C@@H]1C(N)=O)NC(=O)[C@H]1CCC[C@@H]1NC(=O)[C@H]1CCC[C@@H]1N	3.48
C[C@@H](CC(=O)N[C@H]1CCC[C@@H]1C(=O)N[C@H]1CCC[C@@H]1C(=O)N[C@@H](CCCCN)CC(=O)N[C@H]1CCC[C@@H]1C(=O)N[C@H]1CCC[C@@H]1C(N)=O)NC(=O)[C@H]1CCC[C@@H]1NC(=O)[C@H]1CCC[C@@H]1N	3.52
CC(C)[C@@H](CC(=O)N[C@H]1CCC[C@@H]1C(=O)N[C@H]1CCC[C@@H]1C(=O)N[C@@H](CCC(=O)O)CC(=O)N[C@H]1CCC[C@@H]1C(=O)N[C@H]1CCC[C@@H]1C(N)=O)NC(=O)[C@H]1CCC[C@@H]1NC(=O)[C@H]1CCC[C@@H]1N	3.33
CSCC[C@@H](CC(=O)N[C@H]1CCC[C@@H]1C(=O)N[C@H]1CCC[C@@H]1C(N)=O)NC(=O)[C@H]1CCC[C@@H]1NC(=O)[C@H]1CCC[C@@H]1NC(=O)C[C@H](CCCCN)NC(=O)[C@H]1CCC[C@@H]1NC(=O)[C@H]1CCC[C@@H]1N	3.55
CC(C)C[C@@H](CC(=O)N[C@H]1CCC[C@@H]1C(=O)N[C@H]1CCC[C@@H]1C(=O)N[C@H](CC(=O)N[C@H]1CCC[C@@H]1C(=O)N[C@H]1CCC[C@@H]1C(N)=O)C(C)C)NC(=O)[C@H]1CCC[C@@H]1NC(=O)[C@H]1CCC[C@@H]1N	3.33
CC(C)[C@@H](CC(=O)N[C@H]1CCC[C@@H]1C(=O)N[C@H]1CCC[C@@H]1C(N)=O)NC(=O)[C@H]1CCC[C@@H]1NC(=O)[C@H]1CCC[C@@H]1NC(=O)C[C@H](C)NC(=O)[C@H]1CCC[C@@H]1NC(=O)[C@H]1CCC[C@@H]1N	3.31
CC[C@H](C)[C@@H](CC(=O)N[C@H]1CCC[C@@H]1C(=O)N[C@H]1CCC[C@@H]1C(=O)N[C@@H](CCC(N)=O)CC(=O)N[C@H]1CCC[C@@H]1C(=O)N[C@H]1CCC[C@@H]1C(N)=O)NC(=O)[C@H]1CCC[C@@H]1NC(=O)[C@H]1CCC[C@@H]1N	3.35

====

Target: S100B (Homo sapiens, UniProt P04271)
Construct: made in house; host or cells: Escherichia coli BL21(DE3)
Sequence (P04271 whole entry): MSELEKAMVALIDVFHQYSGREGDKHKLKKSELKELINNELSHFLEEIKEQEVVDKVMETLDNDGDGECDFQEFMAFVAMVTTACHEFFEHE
Test: Pull-down assay with immobilized protein and LSM libraries
Assay type: binding
Details: H14 library; 1:1 binding assumed; read-out: Surface mapping KD (apparent)

substance smiles	assayed target	Kd
CC(C)C[C@@H](CC(=O)N[C@H]1CCCC[C@@H]1C(=O)N[C@H]1CCCC[C@@H]1C(=O)N[C@H](CC(=O)N[C@H]1CCCC[C@@H]1C(N)=O)Cc1ccccc1)NC(=O)[C@H]1CCCC[C@@H]1N	S100B (Homo sapiens, UniProt P04271)	11 µM
C[C@@H](CC(=O)N[C@H]1CCCC[C@@H]1C(N)=O)NC(=O)[C@H]1CCCC[C@@H]1NC(=O)[C@H]1CCCC[C@@H]1NC(=O)C[C@H](Cc1ccccc1)NC(=O)[C@H]1CCCC[C@@H]1N	S100B (Homo sapiens, UniProt P04271)	253 µM
CC[C@H](C)[C@@H](CC(=O)N[C@H]1CCCC[C@@H]1C(=O)N[C@H]1CCCC[C@@H]1C(=O)N[C@H](CC(=O)N[C@H]1CCCC[C@@H]1C(N)=O)Cc1ccccc1)NC(=O)[C@H]1CCCC[C@@H]1N	S100B (Homo sapiens, UniProt P04271)	9 µM
